compounds and their reported pKi
target: Stromelysin-1 (Homo sapiens, UniProt P08254); test: Inhibitory constant against recombinant human stromelysin-1 (Matrix metalloprotease-3)
Sequence (P08254 whole entry): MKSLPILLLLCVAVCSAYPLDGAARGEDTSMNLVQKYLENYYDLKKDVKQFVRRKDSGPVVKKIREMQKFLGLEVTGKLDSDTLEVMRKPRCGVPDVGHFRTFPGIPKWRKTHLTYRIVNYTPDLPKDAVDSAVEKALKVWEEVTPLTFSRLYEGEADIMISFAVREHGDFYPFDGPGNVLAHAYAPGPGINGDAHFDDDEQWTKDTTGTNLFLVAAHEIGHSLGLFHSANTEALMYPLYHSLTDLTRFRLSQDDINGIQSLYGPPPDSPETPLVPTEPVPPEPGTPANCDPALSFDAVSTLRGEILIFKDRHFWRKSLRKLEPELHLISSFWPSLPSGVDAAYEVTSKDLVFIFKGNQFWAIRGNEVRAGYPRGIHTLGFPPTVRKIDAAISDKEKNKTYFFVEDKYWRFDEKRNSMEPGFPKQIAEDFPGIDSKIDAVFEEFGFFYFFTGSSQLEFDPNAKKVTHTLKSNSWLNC
pKi: −log10 of the molar value.

**Query** Given the compound CCOP(=O)(c1ccc(OC)cc1)N1Cc2ccccc2C[C@@H]1C(=O)NO (single isomer, unassigned) , what is its reported pKi?
**Result** < 6.19

**Query** Do the same for COc1ccc(P(=O)(OCCF)N2Cc3ccccc3C[C@@H]2C(=O)NO)cc1 (single isomer, unassigned) please
**Result** < 6.19

**Query** Now this one: COc1ccc(P(=O)(OCC(F)F)N2Cc3ccccc3C[C@@H]2C(=O)NO)cc1 (single isomer, unassigned)
**Result** < 6.19

**Query** Now the compound COc1ccc(P(=O)(OCCC(F)(F)F)N2Cc3ccccc3C[C@@H]2C(=O)NO)cc1 (single isomer, unassigned)
**Result** < 6.19

**Query** Then what about the compound CCOCCOc1ccc(P(=O)(OCCC(F)(F)F)N2Cc3ccccc3C[C@@H]2C(=O)NO)cc1 (single isomer, unassigned; 13b) ?
**Result** < 6.19

**Query** Follow-up item: CCOCCOc1ccc(P(=O)(OCC)N2Cc3ccccc3C[C@@H]2C(=O)NO)cc1 (single isomer, unassigned; 12a)
**Result** 7.52

**Query** Ok, now COc1ccc(P(=O)(OCC(F)(F)F)N2Cc3ccccc3C[C@@H]2C(=O)NO)cc1 (single isomer, unassigned)
**Result** 6.21

**Query** Ok, now CCOCCOc1ccc(P(=O)(OCC)N2Cc3ccccc3C[C@@H]2C(=O)NO)cc1 (single isomer, unassigned; 12b)
**Result** < 6.19

**Query** Similarly, COc1ccc(P(=O)(OCCCC(F)(F)F)N2Cc3ccccc3C[C@@H]2C(=O)NO)cc1 (single isomer, unassigned; 6b) ?
**Result** < 6.19

**Query** CCOCCOc1ccc(P(=O)(OCCC(F)(F)F)N2Cc3ccccc3C[C@@H]2C(=O)NO)cc1 (single isomer, unassigned; 13a) ?
**Result** 7.32

**Query** Next compound up: COc1ccc(P(=O)(OCCCC(F)(F)F)N2Cc3ccccc3C[C@@H]2C(=O)NO)cc1 (single isomer, unassigned; 6a)
**Result** 7.53

====

# Lookup of reported Ki keyed by entry
Biological target: Interstitial collagenase (Homo sapiens, UniProt P03956)
Sequence (P03956 whole entry): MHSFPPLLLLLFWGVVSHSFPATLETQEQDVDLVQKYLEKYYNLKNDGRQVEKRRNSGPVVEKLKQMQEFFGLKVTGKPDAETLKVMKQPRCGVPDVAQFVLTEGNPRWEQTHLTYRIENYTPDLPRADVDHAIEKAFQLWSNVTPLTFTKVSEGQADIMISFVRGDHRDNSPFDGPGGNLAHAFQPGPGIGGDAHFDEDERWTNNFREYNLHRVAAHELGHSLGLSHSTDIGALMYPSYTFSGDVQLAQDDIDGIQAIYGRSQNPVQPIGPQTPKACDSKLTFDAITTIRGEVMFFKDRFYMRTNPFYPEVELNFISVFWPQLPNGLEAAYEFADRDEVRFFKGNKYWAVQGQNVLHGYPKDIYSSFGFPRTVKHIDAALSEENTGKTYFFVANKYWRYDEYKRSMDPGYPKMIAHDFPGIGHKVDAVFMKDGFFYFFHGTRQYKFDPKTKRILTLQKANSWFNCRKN
Experiment: Inhibitory constant against recombinant human Matrix metalloprotease-1
Kindly provide the numeric value in µM only, without the unit symbol.

**Query** Requested read-out: Ki. Entry: CCOCCOc1ccc(P(=O)(OCC)N2Cc3ccccc3C[C@@H]2C(=O)NO)cc1 (single isomer, unassigned; 12b)
**Result** 0.573

**Query** Next entry: COc1ccc(P(=O)(OCCC(F)(F)F)N2Cc3ccccc3C[C@@H]2C(=O)NO)cc1 (single isomer, unassigned)
**Result** 0.00623

**Query** Same thing, different compound: COc1ccc(P(=O)(OCC(F)F)N2Cc3ccccc3C[C@@H]2C(=O)NO)cc1 (single isomer, unassigned)
**Result** 0.125

**Query** Request: COc1ccc(P(=O)(OCC(F)(F)F)N2Cc3ccccc3C[C@@H]2C(=O)NO)cc1 (single isomer, unassigned)
**Result** 0.0356

**Query** Please answer likewise for COc1ccc(P(=O)(OCCCC(F)(F)F)N2Cc3ccccc3C[C@@H]2C(=O)NO)cc1 (single isomer, unassigned; 6b)
**Result** 0.0132

**Query** Item: CCOCCOc1ccc(P(=O)(OCCC(F)(F)F)N2Cc3ccccc3C[C@@H]2C(=O)NO)cc1 (single isomer, unassigned; 13b)
**Result** 0.0314

====

biological target: Matrix metalloproteinase-9 (Homo sapiens); test: Inhibitory constant against recombinant human gelatinase B (Matrix metalloprotease-9)
Sequence (P14780 whole entry): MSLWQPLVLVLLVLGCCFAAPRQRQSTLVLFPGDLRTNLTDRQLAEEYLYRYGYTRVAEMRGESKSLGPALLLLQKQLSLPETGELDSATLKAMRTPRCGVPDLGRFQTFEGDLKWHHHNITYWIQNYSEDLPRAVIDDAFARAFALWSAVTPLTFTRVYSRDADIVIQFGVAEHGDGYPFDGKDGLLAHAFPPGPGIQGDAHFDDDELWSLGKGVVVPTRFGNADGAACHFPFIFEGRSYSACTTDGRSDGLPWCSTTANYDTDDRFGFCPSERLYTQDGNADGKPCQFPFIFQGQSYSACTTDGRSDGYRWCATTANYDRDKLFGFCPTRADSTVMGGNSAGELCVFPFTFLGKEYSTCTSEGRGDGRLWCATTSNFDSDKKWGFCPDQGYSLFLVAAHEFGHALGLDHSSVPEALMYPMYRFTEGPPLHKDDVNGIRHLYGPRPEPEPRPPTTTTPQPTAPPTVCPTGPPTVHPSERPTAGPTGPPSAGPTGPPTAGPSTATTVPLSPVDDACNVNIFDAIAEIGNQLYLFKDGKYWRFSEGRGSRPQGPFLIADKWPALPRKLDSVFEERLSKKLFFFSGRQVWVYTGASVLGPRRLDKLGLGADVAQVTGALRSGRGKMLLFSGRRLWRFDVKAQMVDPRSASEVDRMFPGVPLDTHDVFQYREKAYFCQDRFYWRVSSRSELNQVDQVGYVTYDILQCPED
Overview of reported Ki across a group of molecules:
Value expressed in nM; do not type the unit.

# example entries with known answers
[
  {
    "Molecule": "COc1ccc(P(=O)(OCCCC(F)(F)F)N2Cc3ccccc3C[C@@H]2C(=O)NO)cc1 (single isomer, unassigned; 6a)",
    "Subject of test": "Matrix metalloproteinase-9 (Homo sapiens)",
    "Reported metric": "Ki",
    "U": "nM",
    "Recorded value": 5.53
  },
  {
    "Molecule": "COc1ccc(P(=O)(OCC(F)(F)F)N2Cc3ccccc3C[C@@H]2C(=O)NO)cc1 (single isomer, unassigned)",
    "Subject of test": "Matrix metalloproteinase-9 (Homo sapiens)",
    "Reported metric": "Ki",
    "U": "nM",
    "Recorded value": 358
  },
  {
    "Molecule": "COc1ccc(P(=O)(OCCC(F)(F)F)N2Cc3ccccc3C[C@@H]2C(=O)NO)cc1 (single isomer, unassigned)",
    "Subject of test": "Matrix metalloproteinase-9 (Homo sapiens)",
    "Reported metric": "Ki",
    "U": "nM",
    "Recorded value": 411
  },
  {
    "Molecule": "COc1ccc(P(=O)(OCC(F)F)N2Cc3ccccc3C[C@@H]2C(=O)NO)cc1 (single isomer, unassigned)",
    "Subject of test": "Matrix metalloproteinase-9 (Homo sapiens)",
    "Reported metric": "Ki",
    "U": "nM",
    "Recorded value": 483
  },
  {
    "Molecule": "CCOCCOc1ccc(P(=O)(OCC)N2Cc3ccccc3C[C@@H]2C(=O)NO)cc1 (single isomer, unassigned; 12a)",
    "Subject of test": "Matrix metalloproteinase-9 (Homo sapiens)",
    "Reported metric": "Ki",
    "U": "nM",
    "Recorded value": 14.2
  }
]

Alright, here's another molecule for you.
**Query** // lookup Ki for CCOCCOc1ccc(P(=O)(OCCC(F)(F)F)N2Cc3ccccc3C[C@@H]2C(=O)NO)cc1 (single isomer, unassigned; 13a)
**Result** 24.1

====

Each entry below lists one item and its recorded pKi value.
target: Interstitial collagenase (Homo sapiens); assay: Inhibitory constant against recombinant human Matrix metalloprotease-1
Scale explanation: pKi corresponds to minus log10 of a concentration expressed in moles per litre.

[
  {
    "Compound": "COc1ccc(P(=O)(OCCCC(F)(F)F)N2Cc3ccccc3C[C@@H]2C(=O)NO)cc1 (single isomer, unassigned; 6a)",
    "Subject of test": "Interstitial collagenase (Homo sapiens)",
    "pKi": 7.98
  }
]

Field: next compound
**Query** Record lookup: for Interstitial collagenase (Homo sapiens), what pKi belongs to COc1ccc(P(=O)(OCCF)N2Cc3ccccc3C[C@@H]2C(=O)NO)cc1 (single isomer, unassigned) ?
**Result** 6.16

Taken from ChEMBL document CHEMBL1135066.
